Measurement target: LC3B (Homo sapiens)
Construct: made in house; host or cells: E. coli Rosetta (DE3)
Measurement description: AlphaScreen interaction displacement assay (GST-LC3B / biotin-LIRtide)
Type: binding
Test conditions: Table 1-a; n.e. means no effect
Test readout: LC3B inhibition cell free IC50

>>> endpoint_result("Fc1ccc(CN2CN=C(SCc3cccc(Oc4ccccc4)c3)NC2)cc1F [Compound I-18]")
"n.e"
>>> endpoint_result("Fc1ccc(CN2CN=C(SCc3ccc(Br)cc3)NC2)cc1F [Compound I-17]")
"n.e"
>>> endpoint_result("Fc1ccc(CN2CN=C(SCc3ccc(Br)cc3)NC2)cc1 [Compound I-14]")
"n.e"
>>> endpoint_result("Fc1cccc(CN2CN=C(SCc3ccc(Br)cc3)NC2)c1 [Compound I-19]")
"n.e."
>>> endpoint_result("Fc1cccc(CN2CN=C(SCc3cccc(Oc4ccccc4)c3)NC2)c1 [Compound I-20]")
"n.e."
>>> endpoint_result("Fc1ccc(CN2CN=C(SCc3cccc(Oc4ccccc4)c3)NC2)cc1 [Compound I-16]")
"n.e"
>>> endpoint_result("Fc1ccc(CN2CN=C(SCc3ccc(Cl)cc3)NC2)cc1 [Compound I-15]")
"n.e"
